# study target: CRAF^WT (MEK1:CRAF^WT:14-3-3 dimer complex) (Homo sapiens, UniProt P04049)
# Construct: His6 (N); made in house; host or cells: insect cells (baculovirus)
# Sequence (P04049 308-648, one chain of several): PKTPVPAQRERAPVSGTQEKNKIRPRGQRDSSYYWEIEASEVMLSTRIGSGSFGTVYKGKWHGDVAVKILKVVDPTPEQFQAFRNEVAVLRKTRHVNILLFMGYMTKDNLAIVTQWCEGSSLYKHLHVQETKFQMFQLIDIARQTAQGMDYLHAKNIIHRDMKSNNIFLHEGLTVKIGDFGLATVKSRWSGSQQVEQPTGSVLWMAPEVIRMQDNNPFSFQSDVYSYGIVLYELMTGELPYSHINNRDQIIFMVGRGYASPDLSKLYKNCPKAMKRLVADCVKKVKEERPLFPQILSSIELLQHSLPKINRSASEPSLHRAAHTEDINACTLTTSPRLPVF
# procedure text: TR-FRET kinase inhibition assay (phosphorylation of biotinylated MEK1), CRAF WT dimer complex
# Assay type: biochemical
# run conditions: CRAF^WT IC50, 4 nM enzyme, 250 nM MEK1, 200 μM ATP, 40 min preincubation, 30 min reaction
endpoint: pIC50
// scale note: pIC50 = -log10(conc_M); give the bare number

Using the record for `CN(C)CCOc1ccc(-c2nc(-c3ccncc3)c(-c3ccc4c(c3)CC/C4=N\O)[nH]2)cc1` , report its pIC50.
7.94

###

# study target: BRAF^KD (Homo sapiens)
# Sequence (P15056 445-723, one chain of several): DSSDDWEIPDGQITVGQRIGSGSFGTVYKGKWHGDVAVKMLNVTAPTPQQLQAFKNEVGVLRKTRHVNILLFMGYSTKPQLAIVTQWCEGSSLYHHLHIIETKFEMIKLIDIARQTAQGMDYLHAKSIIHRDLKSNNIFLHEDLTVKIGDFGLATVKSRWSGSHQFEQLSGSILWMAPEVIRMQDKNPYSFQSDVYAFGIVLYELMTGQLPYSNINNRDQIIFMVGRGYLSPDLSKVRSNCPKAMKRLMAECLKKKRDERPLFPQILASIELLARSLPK
endpoint: pKi
// scale note: pKi = -log10(conc_M); give the bare number

Using the record for `Nc1ncnc2c1ncn2[C@@H]1O[C@H](COP(=O)(O)OP(=O)(O)OP(=O)(O)O)[C@@H](O)[C@H]1O` , report its pKi.
2.45

###

# study target: BRAF^V600E (MEK1^SASA:BRAF^V600E monomer complex) (Homo sapiens, UniProt P15056, V600E)
# Construct: His6 (N); intein (C, cleaved yes); made in house; host or cells: insect cells (baculovirus)
# Sequence (P15056 445-723 V600E): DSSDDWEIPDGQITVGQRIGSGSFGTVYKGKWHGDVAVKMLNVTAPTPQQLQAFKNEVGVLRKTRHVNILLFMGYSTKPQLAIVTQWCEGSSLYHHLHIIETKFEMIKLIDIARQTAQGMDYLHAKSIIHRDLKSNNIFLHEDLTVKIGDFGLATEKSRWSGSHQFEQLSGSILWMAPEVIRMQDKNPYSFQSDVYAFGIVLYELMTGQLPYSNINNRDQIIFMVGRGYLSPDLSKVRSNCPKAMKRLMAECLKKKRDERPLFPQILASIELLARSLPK
# Sequence (Q02750 whole entry S218A/S222A partner): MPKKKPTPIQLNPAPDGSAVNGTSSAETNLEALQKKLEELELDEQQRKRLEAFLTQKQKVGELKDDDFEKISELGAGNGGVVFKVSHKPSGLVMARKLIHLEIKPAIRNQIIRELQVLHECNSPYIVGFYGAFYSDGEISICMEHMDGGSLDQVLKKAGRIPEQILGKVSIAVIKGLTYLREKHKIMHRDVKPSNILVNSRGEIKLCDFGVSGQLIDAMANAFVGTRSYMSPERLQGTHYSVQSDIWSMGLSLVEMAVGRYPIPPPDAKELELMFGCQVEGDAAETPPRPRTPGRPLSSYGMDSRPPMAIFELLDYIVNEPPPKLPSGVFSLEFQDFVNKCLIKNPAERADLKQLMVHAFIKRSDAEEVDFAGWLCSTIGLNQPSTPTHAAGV
# procedure text: TR-FRET kinase inhibition assay (phosphorylation of biotinylated MEK1), BRAF V600E monomer complex
# Type: biochemical
endpoint: pIC50
// scale note: pIC50 = -log10(conc_M); give the bare number

Cc1ccc2c(Nc3cccc(Cl)c3F)nccc2c1NC(=O)c1csc2c(N)ncnc12 :: 7.88

For the next question, use this compound.
Item `Cc1ccc(NC(=O)c2ccnc(C(F)(F)F)c2)cc1-c1cc(OCCO)nc(N2CCOCC2)c1` with BRAF^V600E (MEK1^SASA:BRAF^V600E monomer complex) (Homo sapiens, UniProt P15056, V600E) - pIC50?
7.29

###

Items are presented alongside their recorded ARAF^SSDD nH (Hill slope).
# study target: ARAF^SSDD (MEK1^SASA:ARAF^SSDD-14-3-3ε dimer complex) (Homo sapiens, UniProt P10398, G300S/Y301D/Y302D)
# Construct: ARAF^274-606, G300S, Y301/302D-14-3-3 ε with N-terminal His6 and StrepII tags; His6 (N); StrepII (N); made in house; host or cells: SF9 insect cells (baculovirus)
# Sequence (P10398 274-606 G300S/Y301D/Y302D, one chain of several): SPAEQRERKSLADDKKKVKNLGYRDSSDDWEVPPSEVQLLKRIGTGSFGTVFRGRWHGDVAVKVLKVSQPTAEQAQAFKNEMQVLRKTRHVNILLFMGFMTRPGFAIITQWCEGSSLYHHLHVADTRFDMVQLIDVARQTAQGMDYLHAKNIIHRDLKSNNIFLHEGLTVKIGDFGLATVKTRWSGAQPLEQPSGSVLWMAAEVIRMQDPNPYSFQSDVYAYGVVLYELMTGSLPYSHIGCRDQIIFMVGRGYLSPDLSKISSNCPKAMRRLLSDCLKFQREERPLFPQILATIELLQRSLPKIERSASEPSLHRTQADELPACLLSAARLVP
# procedure text: TR-FRET kinase inhibition assay (phosphorylation of biotinylated MEK1), ARAF dimer complex
# Format: biochemical
# run conditions: four-parameter fit; 200 μM ATP
Lab note: record just the number, no unit beside it.

OCCn1cc(-c2ccc3c(c2)CC/C3=N\O)c(-c2ccncc2)n1 [GDC0879] :: −0.4
Cc1ccc2c(Nc3cccc(Cl)c3F)nccc2c1NC(=O)c1csc2c(N)ncnc12 [Belvarafenib] :: −1.3
O=C(c1c(F)ccc(NS(=O)(=O)N2CC[C@@H](F)C2)c1F)c1c[nH]c2ncc(-c3cnc(C4CC4)nc3)cc12 [PLX8394] :: −0.8
CCCS(=O)(=O)Nc1ccc(F)c(C(=O)c2c[nH]c3ncc(Cl)cc23)c1F [PLX4720] :: −0.5
CNc1ncc2cc(-c3cc(NC(=O)NCCC(C)(C)C)c(F)cc3C)c(C)nc2n1 [LY3009120] :: −3.6
Cc1ccc(NC(=O)c2cccc(C(C)(C)C#N)c2)cc1Nc1ccc2ncn(C)c(=O)c2c1 [AZ628] :: −1.8

For the next question, use this compound.
Using the record for CNC(=O)c1cc(Oc2ccc(NC(=O)Nc3ccc(Cl)c(C(F)(F)F)c3)cc2)ccn1 [Sorafenib] , report its ARAF^SSDD nH (Hill slope).
−0.9
